B1: ZNF649 (parent)
chain: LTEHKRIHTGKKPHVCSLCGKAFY

# Variants of: B1
# experiment.summary: protein stability index of a GFP-peptide fusion (GPS, HEK-293T) (PSI 1-6); higher = more stable;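 note: lentivirally expressed fusions sorted by FACS into six bins by GFP to DsRed ratio, PSI derived from sequencing read proportions per bin multiplied by bin number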
# experimental.conditions: c terminus: a fixed tail appended
property.measured: protein stability index
Number only, no unit.

Dear colleague, I am looking for the recorded protein stability index of the following variant: `C16N`
2.55

Follow-up item: `K11Y`
2.5

Try this variant too: `T2W`
2

Another variant to check: `T2S`
3

Record: `G10S`
2.19

Now consider `K5L` .
2.23

Would you kindly repeat that for `Y24A` ?
2.88

What about `H14L` ?
2.71

Then this variant: `T9P`
2.85

Please answer likewise for `E3Y`
2.89

One more variant: `I7K`
1.98

Now give it for `A22F` too.
2.16

How about `H14R` ?
2.2

Entry to check: `T9K`
2.35

Please do the same for `A22L` as well.
2.27

What about `G10H` ?
2.16

Proceed to `K21C`
1.39

Follow-up entry: `C19G`
2.39

One more variant: `K11D`
3.21

Also `T9V` , if possible.
3.62

Same question, `Y24H` this time
3.35

Request: `H8R`
4.2
